system.name: GRP78 (78 kDa glucose-regulated protein) (Homo sapiens, UniProt P11021, K326A)
Sequence (P11021 19-654 K326A): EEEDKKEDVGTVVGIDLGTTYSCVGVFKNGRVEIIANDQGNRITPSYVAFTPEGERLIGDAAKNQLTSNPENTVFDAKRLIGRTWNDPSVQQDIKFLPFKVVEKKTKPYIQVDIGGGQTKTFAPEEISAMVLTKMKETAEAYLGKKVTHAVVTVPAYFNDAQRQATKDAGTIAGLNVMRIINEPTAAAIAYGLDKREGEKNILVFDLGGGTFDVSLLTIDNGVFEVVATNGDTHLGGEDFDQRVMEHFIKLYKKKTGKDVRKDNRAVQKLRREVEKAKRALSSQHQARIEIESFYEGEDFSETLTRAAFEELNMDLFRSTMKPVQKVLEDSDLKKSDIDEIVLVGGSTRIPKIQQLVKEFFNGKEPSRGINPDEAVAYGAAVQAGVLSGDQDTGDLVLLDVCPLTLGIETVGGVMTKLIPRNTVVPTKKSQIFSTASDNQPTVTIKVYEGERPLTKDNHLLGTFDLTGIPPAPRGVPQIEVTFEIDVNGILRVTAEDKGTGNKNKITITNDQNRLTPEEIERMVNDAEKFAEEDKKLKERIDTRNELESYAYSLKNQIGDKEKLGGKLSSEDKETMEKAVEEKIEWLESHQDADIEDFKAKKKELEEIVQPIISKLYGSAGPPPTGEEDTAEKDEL
experimental.protocol: microscale thermophoresis
parameter: pKd
When answering, recall that pKd equals minus log10 of the concentration in mol/L, and write that number alone.

pKd recorded for this compound, CC(=O)OC(C)(C)/C=C/C(=O)[C@](C)(O)[C@H]1[C@H](O)C[C@@]2(C)[C@@H]3CC=C4[C@@H](C[C@H](O)C(=O)C4(C)C)[C@]3(C)C(=O)C[C@]12C , is 4.60
